# Test system: field-stimulated guinea pig ileum
# Procedure text: Gastrokinetic Activity: contraction of field-stimulated guinea pig ileum preparations
# Design: species or system guinea pig (Hartley)
# Experimental parameters: Cavia porcellus; at 30 μM; read-out: Average % Maximum Increase
Collected activation at 30 µM values appear next to each entry.
Value expressed in %; do not type the unit.

>>> val("CCN(CC)CCNC(=O)c1cc(Cl)c(N)cc1OCC[S+]([O-])CC (stereo not shown)")
66

For CCN(CC)CCNC(=O)c1cc(Cl)c(N)cc1OCC[S+](C)[O-] (stereo not shown) on field-stimulated guinea pig ileum, measured activation at 30 µM was 88

---

Collected pIC50 values appear next to each entry.
# System tested: dopaminergic (D2) receptors (Rattus norvegicus, UniProt P61169)
# Sequence (P61169 whole entry): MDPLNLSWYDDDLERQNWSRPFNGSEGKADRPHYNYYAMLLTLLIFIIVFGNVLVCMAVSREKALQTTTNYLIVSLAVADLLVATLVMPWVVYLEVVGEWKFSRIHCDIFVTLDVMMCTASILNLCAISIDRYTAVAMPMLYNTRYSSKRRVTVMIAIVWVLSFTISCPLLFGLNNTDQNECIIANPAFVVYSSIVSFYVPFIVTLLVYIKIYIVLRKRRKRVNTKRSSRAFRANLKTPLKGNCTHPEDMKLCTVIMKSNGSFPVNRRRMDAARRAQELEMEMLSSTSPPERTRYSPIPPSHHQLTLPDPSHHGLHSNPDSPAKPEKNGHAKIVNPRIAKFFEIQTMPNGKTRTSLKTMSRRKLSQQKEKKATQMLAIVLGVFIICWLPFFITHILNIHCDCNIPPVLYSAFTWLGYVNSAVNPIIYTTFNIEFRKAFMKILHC
# Procedure text: biochemical
# Experimental parameters: striatal rat brain homogenates, ^3H-spiperone, 37° C., 15 minutes; read-out: 3H-Spiperone Displacement IC50
# Procedure: Rats (150±10 g; Charles River) were decapitated, the corpus striatum dissected out and frozen on dry ice. The tissues were pooled and stored at -80° C. until used. […] Tests to determine the Inhibitory Concentration50 (IC50) of the compounds of Formula I and reference compounds versus ^3 H-spiperone were conducted as follows. […] The samples were incubated at 37° C. for 15 minutes, filtered in vacuo on glass fiber filters and counted by liquid scintillation spectrometry. […]
pIC50: −log10 of the molar value.

Below are worked cases with known answers.
>>> val("C=CCC(C)(Oc1cc(N)c(Cl)cc1C(=O)NCCN(CC)CC)C(C)=O (stereo not shown)")
"< 6.00"
>>> val("CCN(CC)CCNC(=O)c1cc(Cl)c(N)cc1OCCCSC")
"< 6.00"
>>> val("CCN(CC)CCNC(=O)c1cc(Cl)c(N)cc1OCC1CNC(=O)O1 (stereo not shown)")
"< 6.00"
>>> val("CC(=O)C(C)Oc1cc(N)c(Cl)cc1C(=O)NCCN(C)C (stereo not shown)")
"< 6.00"
>>> val("CCN(CC)CCNC(=O)c1cc(Cl)c(N)cc1OCCCN1C(=O)c2ccccc2C1=O")
"< 6.00"
>>> val("CCN(CC)CCNC(=O)c1cc(Cl)c(N)cc1OCCNC(C)=O")
"< 6.00"
>>> val("C=CCN1CCCC1CNC(=O)c1cc2[nH]nnc2cc1OC (stereo not shown) [Alizapride, reference compound]")
6.54
>>> val("CCN(CC)CCNC(=O)c1cc(Cl)c(N)cc1OCCCl")
"< 6.00"

// CCOC(=O)C(Oc1cc(N)c(Cl)cc1C(=O)NCCN(CC)CC)c1ccccc1 (stereo not shown) : pIC50 value = < 6.00

// CCN(CC)CCNC(=O)c1cc(Cl)c(N)cc1OC(C)C(C)=NO (stereo not shown) : pIC50 value = < 6.00

// CCN(CC)CCNC(=O)c1cc(Cl)c(N)cc1OCC[S+]([O-])CC (stereo not shown) : pIC50 value = < 6.00

// COc1cc(N)c(Cl)cc1C(=O)NC1CCN(Cc2ccccc2)CC1 [Clebopride, reference compound] : pIC50 value = 7.96

// CO[C@@H]1CN(CCCOc2ccc(F)cc2)CC[C@@H]1NC(=O)c1cc(Cl)c(N)cc1OCCSC.O (relative stereo) [Example 61, monohydrate] : pIC50 value = 6.12

// CCN(CC)CCNC(=O)c1cc(Cl)c(N)cc1OCCC[S+](C)[O-] (stereo not shown) : pIC50 value = < 6.00

// CCN(CC)CCNC(=O)c1cc(Cl)c(N)cc1OCCCC[S+](C)[O-] (stereo not shown) : pIC50 value = < 6.00

// `CCN(CC)CCNC(=O)c1cc(Cl)c(N)cc1OCC(=O)N1CCCC1` : pIC50 value = < 6.00

// `CCN(CC)CCNC(=O)c1cc(Cl)c(N)cc1OCC(C)=NOC` : pIC50 value = < 6.00

---

Collected activation at 10 µM values appear next to each entry.
# System: field-stimulated guinea pig ileum
# Procedure text: Gastrokinetic Activity: contraction of field-stimulated guinea pig ileum preparations
# Parameters: species or system guinea pig (Hartley)
# Experimental parameters: Cavia porcellus; at 10 μM; read-out: Average % Maximum Increase
Value expressed in %; do not type the unit.

>>> val("CCN(CC)CCNC(=O)c1cc(Cl)c(N)cc1OCC1=NCCN1")
51
>>> val("CCN(CC)CCNC(=O)c1cc(Cl)c(N)cc1OCC(=O)N1CCCC1")
38
>>> val("CCN(CC)CCNC(=O)c1cc(Cl)c(N)cc1OCCNC(C)=O")
47
>>> val("CCN(CC)CCNC(=O)c1cc(Cl)c(N)cc1OCC(=O)NC")
56
>>> val("CN(C)CCNC(=O)c1cc(Cl)c(N)cc1O")
41

// CCN(CC)CCNC(=O)c1cc(Cl)c(N)cc1OCC(=O)NN.O.O.O [Example 36, Trihydrate] : activation at 10 µM value = 55

---

# System: field-stimulated guinea pig ileum
# Procedure text: Gastrokinetic Activity: contraction of field-stimulated guinea pig ileum preparations
# Set-up: species or system guinea pig (Hartley)
# Experimental parameters: Cavia porcellus; effective concentration50; read-out: EC50 (95% C.L.)
Outcome measure: EC50 (µM)
Value expressed in µM; do not type the unit.

Below are worked cases with known answers.
>>> val("CCN(CC)CCNC(=O)c1cc(Cl)c(N)cc1OC(C)C#N (stereo not shown) [Example 14]")
18
>>> val("CCN(CC)CCNC(=O)c1cc(Cl)c(N)cc1OCCNC(C)=O [Example 48]")
13
>>> val("CCN(CC)CCNC(=O)c1cc(Cl)c(N)cc1OCC(=O)NC [Example 40]")
5.5
>>> val("CCN(CC)CCNC(=O)c1cc(Cl)c(N)cc1OC [Metoclopramide, reference compound]")
11

// CCN(CC)CCNC(=O)c1cc(Cl)c(N)cc1OCC(=O)NNC(C)=O [Example 37, Acetate] : EC50 value = 6.6

// CCN(CC)CCNC(=O)c1cc(Cl)c(N)cc1OCc1cc(C)no1 [Example 19] : EC50 value = 5.9

// CN(C)CCNC(=O)c1cc(Cl)c(N)cc1O [Example 17] : EC50 value = 15

---

# Tested on: field-stimulated guinea pig ileum
# Procedure text: Gastrokinetic Activity: contraction of field-stimulated guinea pig ileum preparations
# Parameters: species or system guinea pig (Hartley)
# Experimental parameters: Cavia porcellus; effective concentration50; read-out: EC50 (95% C.L.)
Outcome measure: pEC50
Note on pEC50: it is the negative log10 of concentration, concentration in mol/L.

>>> val("CCN(CC)CCNC(=O)c1cc(Cl)c(N)cc1OCC(N)=O [Example 16, Monohydrate]")
5.43
>>> val("CCN(CC)CCNC(=O)c1cc(Cl)c(N)cc1OCC[S+](C)[O-] (stereo not drawn)")
5.64
>>> val("CCN(CC)CCNC(=O)c1cc(Cl)c(N)cc1OCC[S+]([O-])CC (stereo not drawn)")
5.32
>>> val("CCN(CC)CCNC(=O)c1cc(Cl)c(N)cc1OCCC[S+](C)[O-] (stereo not drawn)")
4.41
>>> val("CCN(CC)CCNC(=O)c1cc(Cl)c(N)cc1OCC(=O)N1CCCC1")
4.70
>>> val("CCN(CC)CCNC(=O)c1cc(Cl)c(N)cc1OCC1=NCCN1")
5.30
>>> val("CCN(CC)CCNC(=O)c1cc(Cl)c(N)cc1OCCCC(=O)N(CC)CC")
5.14
>>> val("CCN(CC)CCNC(=O)c1cc(Cl)c(N)cc1OCCCC[S+](C)[O-] (stereo not drawn)")
5.25

// CCN(CC)CCNC(=O)c1cc(Cl)c(N)cc1OCC(=O)NN.O.O.O [Example 36, Trihydrate] : pEC50 value = 5.34

---

Collected ED50 values appear next to each entry.
# Tested on: Apomorphine-Induced Emesis
# Procedure text: Antagonism of Apomorphine-Induced Emesis in Dogs
# Format: in vivo, beagle dogs
# Experimental parameters: Canis lupus familiaris, sc; s.c. 30 minutes prior to apomorphine 0.3 mg/kg; dog; read-out: Antagonism of Apomorphine-Induced Emesis in the Dog ED50

Below are worked cases with known answers.
>>> val("CCN(CC)CCNC(=O)c1cc(Cl)c(N)cc1OC [Metoclopramide, reference compound]")
"0.5 mg/kg"
>>> val("CCCC(=O)COc1cc(N)c(Cl)cc1C(=O)NCCN(CC)CC")
"> 3 mg/kg"
>>> val("CCN(CC)CCNC(=O)c1cc(Cl)c(N)cc1OCC1OCCO1")
"> 3 mg/kg"

For `CCN(CC)CCNC(=O)c1cc(Cl)c(N)cc1OCCCN1C(=O)c2ccccc2C1=O` on Apomorphine-Induced Emesis, measured ED50 was > 3 mg/kg

For `CCC(=O)COc1cc(N)c(Cl)cc1C(=O)NCCN(CC)CC` on Apomorphine-Induced Emesis, measured ED50 was > 3 mg/kg
